B1: human RANKL ectodomain (residues 158-317), wild type [human] / mouse RANK extracellular domain [mouse] (parent complex)
chain 1: SKLEAQPFAHLTINATDIPSGSHKVSLSSWYHDRGWAKISNMTFSNGKLIVNQDGFYYLYANICFRHHETSGDLATEYLQLMVYVTKTSIKIPSSHTLMKGGSTKYWSGNSEFHFYSINVGGFFKLRSGEEISIEVSNPSLLDPDQDATYFGAFKVRDID
chain 2: VTPPCTQERHYEHLGRCCSRCEPGKYLSSKCTPTSDSVCLPCGPDEYLDTWNEEDKCLLHKVCDAGKALVAVDPGNHTAPRRCACTAGYHWNSDCECCRRNTECAPGFGAQHPLQLNKDTVCTPCLLGFFSDVFSSTDKCKPWTNCTLLGKLEAHQGTTESDVVCSSSMTLRRPPKEAQAYLPS

- Variants of: B1
- protocol-text: SPR (Biacore, chelating NTA sensor chip); hRANKL or mutant injected at 0, 0.47, 0.94, 1.88, 3.75, 7.5, 15 and 30 nM; parent: 0.156 nM
Please go through the items and note down their Kd.
One number for each entry, in µM.

Recorded results for 2 variants are shown here.
{"columns": ["mut", "measured-attribute", "value-measured"],
 "data": [
  ["chain 1 D143A", "Kd", 0.00215],
  ["chain 1 R66A, chain 1 D143A", "Kd", 0.0394]
]}

# input variant: chain 1 R66A ; wanted: its Kd
0.0107
